- Experimental target: BTK (Homo sapiens, UniProt Q06187)
- Construct: purchased Reaction Biology Corporation
- Sequence (Q06187 whole entry): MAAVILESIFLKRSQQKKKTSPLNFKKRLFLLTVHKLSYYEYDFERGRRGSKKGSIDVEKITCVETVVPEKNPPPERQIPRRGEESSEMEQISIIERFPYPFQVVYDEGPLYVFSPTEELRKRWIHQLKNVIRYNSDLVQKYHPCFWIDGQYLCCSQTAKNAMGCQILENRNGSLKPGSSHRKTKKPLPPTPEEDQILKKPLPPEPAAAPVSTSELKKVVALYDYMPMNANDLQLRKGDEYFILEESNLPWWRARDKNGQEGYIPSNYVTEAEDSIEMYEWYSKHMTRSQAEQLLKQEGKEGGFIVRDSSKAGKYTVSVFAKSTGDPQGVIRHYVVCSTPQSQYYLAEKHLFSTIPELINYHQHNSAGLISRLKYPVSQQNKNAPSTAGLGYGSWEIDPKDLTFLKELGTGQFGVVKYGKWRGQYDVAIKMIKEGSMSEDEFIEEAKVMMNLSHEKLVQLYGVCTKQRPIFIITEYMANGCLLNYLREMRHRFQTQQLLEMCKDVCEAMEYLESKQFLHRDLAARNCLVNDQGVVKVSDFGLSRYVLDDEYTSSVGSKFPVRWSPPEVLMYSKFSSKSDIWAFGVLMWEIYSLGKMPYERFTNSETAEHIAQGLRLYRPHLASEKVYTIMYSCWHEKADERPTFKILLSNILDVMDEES
- Assay remarks: BTK kinase profiling, HotSpot radiometric assay (Reaction Biology)
- Format: biochemical
- Settings: compound 0.01 μM; ATP 10 μM; read-out: BTK @ 0.01 μM (% Inh)
Rule: Satisfied for inhibition at 0.01 µM not less than 90%, Not satisfied for anything less.

Would you please look over these solved cases?
Nc1ncnc2c1c(-c1cc(O)c(F)c(F)c1)nn2CCNc1ncccn1; Not satisfied
C=CC(=O)N(CCn1nc(-c2ccc(Oc3ccccc3)cc2)c2c(N)ncnc21)Cc1ccccc1; Satisfied
Nc1ncnc2c1c(-c1cc(O)cc(F)c1)nn2CCNCc1ccccc1; Not satisfied

Next:
Dear colleague, could you confirm whether `Nc1ncnc2c1c(-c1cc(O)c(F)c(F)c1)nn2CCNCc1cccnc1` has inhibition at 0.01 µM at or above 90%?
Not satisfied

// provenance: patent US20160272645A1
